Data origin: paper PMC13372681

# PROCEDURE_SUMMARY: in vivo
# CONDITION: female, ICR CD-1, mouse, plasma, sc, 50 mg/kg, Plasma concentration MKM, s.c. 50 mg/kg, Time 24 (h), Mouse 1; below limit of quantification
Where a SMILES comes first, the peptide text is derived from it. Bridges are numbered along the chain shown (N, C = ends). [ ]: non-standard residue; d: D form. dOrn = NCCC[C@@H](N)C(=O)O
READOUT_LABEL: level at 24 h (ng/mL)

{"COMPOUND": "C[C@@H](O)[C@@H]1NC(=O)[C@@H](CCCNC(=N)N)NC(=O)[C@@H](CCCNC(=N)N)NC(=O)[C@@H](CC(N)=O)NC(=O)[C@@H](NC(=O)[C@@H](Cc2ccccc2)NC(=O)[C@@H](CCCN)NC(=O)[C@H](N)CCCNC(=N)N)[C@@H](C)OC(=O)[C@H](Cc2c[nH]cn2)NC1=O [MKM-A, manikomycin] (H-[dR][dOrn][dF]T[dN][dR][dR]TH; ester 4-C)", "DATA_VALUE": 71.5}

###

# PROCEDURE_SUMMARY: in vivo
# CONDITION: female, ICR CD-1, mouse, plasma, sc, 50 mg/kg, Plasma concentration MKM, s.c. 50 mg/kg, Time 24 (h), Mouse 3; below limit of quantification
Where a SMILES comes first, the peptide text is derived from it. Bridges are numbered along the chain shown (N, C = ends). [ ]: non-standard residue; d: D form. dOrn = NCCC[C@@H](N)C(=O)O
READOUT_LABEL: level at 24 h (ng/mL)

{"COMPOUND": "C[C@@H](O)[C@@H]1NC(=O)[C@@H](CCCNC(=N)N)NC(=O)[C@@H](CCCNC(=N)N)NC(=O)[C@@H](CC(N)=O)NC(=O)[C@@H](NC(=O)[C@@H](Cc2ccccc2)NC(=O)[C@@H](CCCN)NC(=O)[C@H](N)CCCNC(=N)N)[C@@H](C)OC(=O)[C@H](Cc2c[nH]cn2)NC1=O [MKM-A, manikomycin] (H-[dR][dOrn][dF]T[dN][dR][dR]TH; ester 4-C)", "DATA_VALUE": 68}

###

# PROCEDURE_SUMMARY: in vivo
# CONDITION: female, ICR CD-1, mouse, plasma, sc, 50 mg kg^−1
Where a SMILES comes first, the peptide text is derived from it. Bridges are numbered along the chain shown (N, C = ends). [ ]: non-standard residue; d: D form. dOrn = NCCC[C@@H](N)C(=O)O

{"MOLECULE": "C[C@@H](O)[C@@H]1NC(=O)[C@@H](CCCNC(=N)N)NC(=O)[C@@H](CCCNC(=N)N)NC(=O)[C@@H](CC(N)=O)NC(=O)[C@@H](NC(=O)[C@@H](Cc2ccccc2)NC(=O)[C@@H](CCCN)NC(=O)[C@H](N)CCCNC(=N)N)[C@@H](C)OC(=O)[C@H](Cc2c[nH]cn2)NC1=O [MKM-A, manikomycin] (H-[dR][dOrn][dF]T[dN][dR][dR]TH; ester 4-C)", "VALUE_UNIT": "ng/mL", "Cmax": 9130}

###

# PROCEDURE_SUMMARY: in vivo
# CONDITION: female, ICR CD-1, mouse, plasma, sc, 50 mg/kg, Plasma concentration MKM, s.c. 50 mg/kg, Time 2 (h), Mouse 1
Where a SMILES comes first, the peptide text is derived from it. Bridges are numbered along the chain shown (N, C = ends). [ ]: non-standard residue; d: D form. dOrn = NCCC[C@@H](N)C(=O)O
READOUT_LABEL: level at 2 h (ng/mL)

{"COMPOUND": "C[C@@H](O)[C@@H]1NC(=O)[C@@H](CCCNC(=N)N)NC(=O)[C@@H](CCCNC(=N)N)NC(=O)[C@@H](CC(N)=O)NC(=O)[C@@H](NC(=O)[C@@H](Cc2ccccc2)NC(=O)[C@@H](CCCN)NC(=O)[C@H](N)CCCNC(=N)N)[C@@H](C)OC(=O)[C@H](Cc2c[nH]cn2)NC1=O [MKM-A, manikomycin] (H-[dR][dOrn][dF]T[dN][dR][dR]TH; ester 4-C)", "READOUT_LABEL": "level at 2 h", "VALUE_UNIT": "ng/mL", "DATA_VALUE": 1470}
